EXPERIMENTAL_TARGET: Potassium channel subfamily K member 3 (Homo sapiens)
ASSAY_INFO: human KCNK3 channel inhibitors, primary screen, CHO cells, FluxOR thallium flux, B-score (AID 602410);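 for B-score: more negative B-score means stronger inhibition of thallium flux through KCNK3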
EXPERIMENTAL_SETUP: FluxOR fluorescence, at 10 µM
The whole screen tested about 340,000 compounds, of which about 2,800 (0.82%) were called active.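 Rule for the calls: active = B-score under library mean minus 4 SD, starting fluorescence ratio at most library mean plus 5 SD; inactive = the rest.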 Many of the other results were omitted from the sample, so actives are more common in it than they were.
Possible outcomes: Y (active), N (inactive)

MOLECULE | LABEL_VALUE
FC(F)(F)c1cccc(-c2cc3ccccc3nc2N2CCCC2)c1 | Y
CCc1ccc(C(=O)CSc2nnc(C)c(=O)[nH]2)cc1 | N
N#Cc1nc(Cc2cccc3ccccc23)oc1NCc1ccc2c(c1)OCO2 | Y
O=C(c1cc2ccccc2o1)N1CCN(c2cccc(C(F)(F)F)c2)CC1 | N
CSc1cccc(NC(=O)C2CCCN2S(=O)(=O)c2ccc3c(c2)CCC(=O)N3)c1 (configuration not stated) | N
COc1ccc(CNC(=O)CNC(=O)c2sc3ccccc3c2Cl)cc1OC | N
NS(=O)(=O)c1ccc(CCNC(=O)COC(=O)COc2cccc(C(F)(F)F)c2)cc1 | N
Cc1ccc(C(=O)OCC(=O)NC(=O)Cc2ccccc2)c(O)c1 | N
c1n[nH]c(NCc2ccc3c(c2)OCO3)n1 | N
O=C(NCCc1ccccn1)c1nc(Cn2cc([N+](=O)[O-])cn2)no1 | N
CC1(C)CC(=O)C/C(=N\NC(=O)c2cccs2)C1 | N
CCc1ccccc1NC(=O)NCCN1CCCCC1 | N
COc1ccc(Cl)cc1NC(=O)NC(C)C(C)(C)C (configuration not stated) | N
O=C(CCNS(=O)(=O)c1ccccc1C(F)(F)F)NCc1ccc2c(c1)OCO2 | N
O=C(Nc1ccccc1)O/N=C1\CCCCC1c1ccc([N+](=O)[O-])cc1[N+](=O)[O-] (configuration not stated) | Y
O=C(OCC(O)C(O)COC(=O)c1ccccc1)c1ccccc1 (configuration not stated) | N
COc1ccc(Cl)cc1NC(=O)NCC1CCN(Cc2ccccc2F)CC1 | N
c1ccc(-c2cc(N3CCCCC3)c3ccccc3n2)cc1 | N
Cc1c(NC(=O)CCC2CCCCC2)cc(C(=O)N2CCOCC2)cc1[N+](=O)[O-] | N
O=[N+]([O-])c1ccc(N/N=C2/CCCCC2c2ccccn2)c([N+](=O)[O-])c1 (configuration not stated) | N
Cc1ccc(OCCC(=O)Nc2ccc(S(=O)(=O)Nc3nccs3)cc2)cc1 | N
CCC(C)(C)NC(=O)c1cc([N+](=O)[O-])ccc1N1CCCCC1 | N

---

EXPERIMENTAL_TARGET: Potassium channel subfamily K member 3 (Homo sapiens) (UniProt O14649)
Sequence (O14649 whole entry, looked up): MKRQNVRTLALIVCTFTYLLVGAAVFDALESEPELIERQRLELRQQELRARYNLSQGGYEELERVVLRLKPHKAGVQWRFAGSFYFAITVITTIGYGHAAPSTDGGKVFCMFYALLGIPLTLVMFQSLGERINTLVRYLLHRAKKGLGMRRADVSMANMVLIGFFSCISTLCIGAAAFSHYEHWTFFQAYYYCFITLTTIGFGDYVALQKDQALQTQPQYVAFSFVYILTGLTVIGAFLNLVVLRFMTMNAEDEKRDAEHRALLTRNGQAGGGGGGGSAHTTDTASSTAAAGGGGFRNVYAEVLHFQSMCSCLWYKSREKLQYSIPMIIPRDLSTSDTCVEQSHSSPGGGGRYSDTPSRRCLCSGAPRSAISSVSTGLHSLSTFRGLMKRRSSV
ASSAY_INFO: human KCNK3 channel inhibitors, primary screen, CHO cells, FluxOR thallium flux, B-score (AID 602410);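 for B-score: more negative B-score means stronger inhibition of thallium flux through KCNK3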
EXPERIMENTAL_SETUP: FluxOR fluorescence, at 10 µM; stronger effect = lower value
Hit rate of the full screen: of about 340,000 compounds, about 2,800 (0.82%) were called active. The sample holds actives, similar compounds and a random draw of the others, so the mix is not that of the screen.

MOLECULE | B-score
CC(C)(C)C(=O)Nc1c(Br)c(C2CC2)nn1-c1ccccc1 | inactive
CC(=O)c1c(C)c[nH]c1C | inactive
CN(CCC(=O)Nc1cc(S(=O)(=O)N(C)C)ccc1Cl)CC(=O)Nc1ccc(F)cc1 | -16.6 (active)
CC1CCc2sc(C(=O)NCC(c3ccco3)N3CCCCC3)cc2C1 (stereo unspecified) | inactive
CN(CC(=O)Nc1ccc(S(=O)(=O)N2CCCC2)cc1)Cc1ccc(Cl)c(Cl)c1 | inactive
C/C(=N/NC(=O)c1ccc(Br)o1)c1ccc(C)o1 | inactive
